Test system: SK-OV-3 ovarian
assayOverview: NCI-60 one-dose screen, 48 h (100 = growth as untreated, 0 = no growth, -100 = all killed)
conditionParameters: 10 µM unless noted
The panel holds about 83,000 compounds, 20% with a hit somewhere; the sample as a whole holds those more often.
readoutKind: growth (%)
// note: answer is a bare numeric in %

Request: # growth lookup, item COc1cc2nc(Cl)nc(Nc3cccc(C4=Nc5c(N)nc(N)nc5NC(c5ccc(F)cc5)C4)c3)c2cc1OC (centres undefined)
Response: 117

Request: Cool, now `O=S(=O)(NCCNc1nccc(-n2cnc3ccccc32)n1)c1ccc(Cl)cc1`
Response: 112

Request: Cool, now `C#CCOC(=O)[C@@H]1CCCN1CC#C`
Response: 97.6

Request: Cool, now `COc1ccccc1-n1cc(C#N)c(N)c1C(=O)c1ccc(C)cc1`
Response: 93.5

Request: Cool, now `Cc1ccc(S(=O)(=O)N(CC[C@@H]2C[C@H]2c2cc3ccccc3o2)S(=O)(=O)c2ccc(C)cc2)cc1`
Response: 101

Request: Cool, now `COC(=O)c1ccc(NC2=C/C(=N/S(=O)(=O)c3ccc(C(=O)O)cc3)c3ccccc3C2=O)cc1`
Response: 106

Request: Cool, now `Nc1ncc(-c2ccc(NS(=O)(=O)c3ccc(Cl)c(Cl)c3)cc2)[nH]1`
Response: 94.5

Request: Cool, now O=C(c1ccc(Cl)cc1)C1[C@H](c2ccc(Cl)cc2)[C@@H](c2ccccc2)NC12C(=O)Nc1ccccc12 (some centres undefined)
Response: 102

Request: Cool, now `Cn1ccnc1C(=O)/C=C/c1ccc(CNC(=O)c2c(F)c(F)c(F)c(F)c2F)cc1`
Response: 105

Where do these numbers come from? They come from PubChem BioAssay (NCI).
